Origin of measurements: patent US20230107642A1

Biological target: Cys12 of the KRAS 4B G12C protein (Homo sapiens, UniProt P01116, G12C)
Construct: This protein contained 188 amino acids in total, including an N-terminal 6-Histidine tag; made in house; host or cells: E. coli BL21
Experiment: In vitro covalent adduct formation (CAF) assay, LC-MS intact mass
Format: binding
Conditions: 10 μM compound, after 1 hour
assay-metric: CAF (% after 1 hour) (%)

1 = C=CC(=O)N1[C@H](C)CN(c2nc(=O)n3c4c(c(-c5cc(Cl)c(F)cc5F)c(C(F)(F)F)cc24)SC[C@@H](Oc2cc(C)on2)C3)C[C@@H]1C [Example 1230]
2 = C=CC(=O)N1CCN(c2nc(=O)n3c4c(c(-c5cc(Cl)c(F)cc5F)c(C(F)(F)F)cc24)SC[C@@H](OC)C3)[C@@H]2CSC[C@@H]21 [Example 1214]
// pick min by CAF (% after 1 hour): 1 , 2 Answer format: the label of the selected item. 2
(2: 49%, 1: 94%)
